The origin of these recorded values is ChEMBL document CHEMBL3621171.

System: Raji
Assay: Cytotoxicity against human Raji cells after 4 days by MTT assay
Assay type: functional, cell-based
Conditions: 96 h
experimentalEndpoint: EC50

- molecule: "C/C1=C\\[C@@H](O)C(=O)/C=C/C=C\\c2csc(n2)[C@@H](C)NC(=O)C[C@@]2(CC1)[S+]([O-])SC(=O)[C@]2(C)O (stereo not given in full)"
  EC50: "6.29 nM"
- molecule: "C/C1=C\\CC(=O)/C=C/C=C\\c2csc(n2)[C@@H](C)NC(=O)C[C@@]2(CC1)SC(=O)[C@@H]2C"
  EC50: "> 10000 nM"
- molecule: "C/C1=C\\CC(=O)/C=C/C=C\\c2csc(n2)[C@@H](C)NC(=O)C[C@]2(CC1)[C@@H](C)C(=O)S[S+]2[O-] (stereo not given in full)"
  EC50: "8.21 nM"
- molecule: "C/C1=C\\CC(=O)/C=C/C=C\\c2csc(n2)[C@@H](C)NC(=O)C[C@@]2(CC1)SSC(=O)[C@@H]2C"
  EC50: "48.7 nM"

Now turn to the next molecule.
Task: Give EC50 for C/C1=C\CC(=O)/C=C/C=C\c2csc(n2)[C@@H](C)NC(=O)C[C@@](S)([C@@H](C)C(=O)O)CC1 tested on Raji.
Result: > 10000 nM
